- assay.target: PcaY_PP-LBD (Pseudomonas putida)
- Construct: His-tag (from the pET28b vector; inferred from NdeI/BamHI cloning and HisTrap purification) (N); made in house; host or cells: Escherichia coli BL21 (DE3)
- Sequence (Q88JK6 44-196): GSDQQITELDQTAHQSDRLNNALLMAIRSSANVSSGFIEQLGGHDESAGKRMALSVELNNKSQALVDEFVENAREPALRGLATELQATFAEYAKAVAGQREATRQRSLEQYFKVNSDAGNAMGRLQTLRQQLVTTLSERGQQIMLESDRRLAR
- assay.comment: biochemical
- Type: binding, Pseudomonas putida KT2440
- condition: ITC
// label = met if ∆G is not less than -6 kcal/mol, otherwise not met

>>> df
                                   compound  category_label
0  Nc1cccc(C(=O)O)c1 [3-ABA, 3-aminobenzoate]             met
1       O=C(O)c1ccccc1 [Benzoate, benzoate]             met
2  COc1cc(C(=O)O)ccc1O [Vanillate, vanillate]         not met
3  O=C(O)c1ccc(O)cc1 [4-HBA, 4-hydroxybenzoate]         not met
4  Nc1ccc(C(=O)O)cc1 [4-ABA, 4-aminobenzoate]             met
5  O=C(O)C1=CC(O)C(O)C(O)C1 (centres unmarked) [Shikimate, shikimate]         not met
